- measurement-target: T1, UNK ZnF1-3 (human, UniProt Q9C0B0 31-174)
- T1 sequence: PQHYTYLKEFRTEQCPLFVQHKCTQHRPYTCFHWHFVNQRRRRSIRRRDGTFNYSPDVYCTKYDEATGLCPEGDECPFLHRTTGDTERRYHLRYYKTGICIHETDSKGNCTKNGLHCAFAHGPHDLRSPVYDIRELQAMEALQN
- protocol-text: nsRBNS (natural sequence RNA bind-n-seq); RBNS binding buffer (assumed for nsRBNS): 25 mM Tris pH 7.5, 150 mM KCl, 3 mM MgCl2, 0.01% Triton X-100, 500 ug/ml BSA, 20 U/ml SUPERase-In, 4 C; UNK is unkempt and MSI1 is Musashi-1; names of the RNAs are library labels; protein concentration not given here; high values mean tight binding
In all, about 24,000 sequences were measured (“enrichment r”: median about 0.99, highest 2% from about 3.7 on). What follows is part of a selection rich in the highest values, with near analogues and random picks from the rest.
endpoint-label: binding signal (enrichment R)
Give just the number in enrichment R; leave the unit off.

A selection of reference data follows.
>  <binder>
chr1:135503150:135503151:-_ENSMUSG00000090553_ENSMUST00000166915|mus_hu|motif|central (ssRNA) RNA: GGGAGUUCUACAGUCCGACGAUCUUCUGCAUCAUCUAAUACAAGGUUCAUAUACUCAUCAAAACCAAUGAUACAGCCUUCGGUCCGCAUAUUCACUUGCUCAUAGAGCCACACCUGAAUCCGCGAUCUCUGAAAUAAUCAUAACAACAGAGGAUUGAGCAUCA

>  <result-unit>
enrichment R

>  <binding signal>
1.18

$$$$
>  <binder>
chr3:41281487:41281488:+_ENSG00000168036_ENST00000349496|hu_hu|motif|central (ssRNA) RNA: GGGAGUUCUACAGUCCGACGAUCCUACGAGAGACUUAAAAAACAGUUACUGCAAAAAAAAAAAAAAAAAAAAAAAAAGAGCGGCUUCAAAGCAAGCAAAGUCAGUACCAUUACAGAUAUUCUUAAAAAAAAAAAAAAAAAAAUCAACAGAGGAUUGAGCAUCA

>  <result-unit>
enrichment R

>  <binding signal>
8.09

$$$$
>  <binder>
chr1:38489359:38489360:+_ENSG00000183520_ENST00000537711|hu_mus|FALSE|FALSE (ssRNA) RNA: GGGAGUUCUACAGUCCGACGAUCAGUCAUGAUUACAAAACAGGAAGACCAAGCCAUUUGAAUUAAUAAAAUCUGAAGUUAUUACAAAAGACAGGAGGAAAAGAUAAUAAUUCUUUUCGAUACAGAAUGCUGAGGCUUAAUUUUCAACAGAGGAUUGAGCAUCA

>  <result-unit>
enrichment R

>  <binding signal>
8.05

$$$$
>  <binder>
chr18:90710673:90710674:+_ENSMUSG00000024614_ENSMUST00000025515|mus_mus|motif|central (ssRNA) RNA: GGGAGUUCUACAGUCCGACGAUCACCUAAUAAAAAUUCUGAAAUUAGCUAAAAUGAAGGCAUCAAAAUUAACAAAUGAUCGGUAGUAAACAUUAUCACAAAAUACCCACUCUUAGACACGACUGCAUUCUGAUGAAAGAUGCGCAACAGAGGAUUGAGCAUCA

>  <result-unit>
enrichment R

>  <binding signal>
1.85

$$$$
>  <binder>
chr14:31337589:31337590:+_ENSMUSG00000021962_ENSMUST00000022535|mus_mus|motif|central (ssRNA) RNA: GGGAGUUCUACAGUCCGACGAUCAAUGACCUGUAUCAUAGAAACGAAGACACUUUUCAUUCAAAGAAUAUCUCAAAAUUACGGUUGCUGAAAUAAUCAAAUUCUACAUUAAAAUAUUACCAAACACCAUUACAUGCCAUAAAACAACAGAGGAUUGAGCAUCA

>  <result-unit>
enrichment R

>  <binding signal>
0.998

$$$$
>  <binder>
67235911_67236031_3360_3pUTR_ENSMUSG00000036371_ENSMUST00000042990|mouse|control|control (ssRNA) RNA: GGGAGUUCUACAGUCCGACGAUCAACAUUCAAAAAUCUUAAACAAGAAUUAUCUUACGAUAAUGAAAAAGGGAAACCAAGAAACAUAUAAAGGGGUUCCCACUUGAUUGCUUUUAUCUUUUAGGAAAUGAGCAUGAAAAUAAACAACAGAGGAUUGAGCAUCA

>  <result-unit>
enrichment R

>  <binding signal>
5.78

$$$$

Consider now this further binder.
-- ask Give the measured binding signal of chr10:33190432:33190433:-_ENSG00000150093_ENST00000302278|hu_mus|hu_hu_hu_mus_True|58_98 (ssRNA) RNA: GGGAGUUCUACAGUCCGACGAUCUACAUUUUCCAAACCUGCACAUGAAUAAAACCCUGGCCACAGAGCCCCAAAACUACCUAACUGUGACUAAGAUGCUGCUGCUGUGAGCUUGGUGUUGCAAAAUCCGCCUGAGUAGGAUUCCAACAGAGGAUUGAGCAUCA .
-- reply 1.55

Provenance of the data: paper PMC12136788
